Assay: qHTS assay for small molecule activators of the p53 signaling pathway (AID 651743); note: % of control where 0% means no effect
Conditions: HCT-116 p53RE-bla, beta-lactamase FRET ratio, 16 h; active compounds read high
Results filed as inconclusive are left out.
Would you kindly list activation for each of these compounds?
Answers are plain numbers, in %.

Input: Consider the compound CO[Si](CCCOCC1CO1)(OC)OC (configuration not stated) and give its measured activation.
Output: 1.09

# per-item lookup of activation; items listed below
1. COC(=O)c1ccc(I)cc1S(=O)(=O)NC(=O)Nc1nc(C)nc(OC)n1
2. CCOCCOCCOCC

Output:
1. -2.48
2. -1.74

---

Assay: qHTS assay for small molecule activators of the human pregnane X receptor (PXR) signaling pathway (AID 720659); note: 0% is about no effect
Conditions: DPX-2 HepG2 CYP3A4-luciferase, 24 h; series mostly up to 92.3 µM
Calls of active or inactive are those of the source. The rule behind the calls is not given here.
observable: outcome

Study these solved cases before continuing.
Input: Consider the compound "CCCCCCCC(=O)OC" and give its measured outcome.
Output: inactive

Input: Repeat with "O=C(O)C(Oc1ccc(Cl)cc1)Oc1ccc(Cl)cc1"
Output: inactive

Input: Repeat with "CC(C)c1ccc(C(C)C)cc1"
Output: inactive

Input: Repeat with "C=CCOC(=O)CC(C)C"
Output: inactive

# per-item lookup of outcome; items listed below
1. O=c1oc(=O)c2cc3c(=O)oc(=O)c3cc12
2. C[Si](C)(Cl)[Si](C)(C)Cl
3. CCCC/C=C\CCCCCCCCCC=O
4. CC(=O)CC(=O)Nc1ccc(C)cc1C

Output:
["inactive", "inactive", "inactive", "inactive"]
